Origin of values: patent US20150065440A1

Target: FGF-1 (Homo sapiens)
Sequence (P05230 whole entry, species assumed): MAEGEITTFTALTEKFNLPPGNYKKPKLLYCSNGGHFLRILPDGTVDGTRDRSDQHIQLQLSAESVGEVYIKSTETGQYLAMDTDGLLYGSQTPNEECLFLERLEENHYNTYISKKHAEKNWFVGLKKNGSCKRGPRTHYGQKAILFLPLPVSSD
Assay: Growth factor binding assay (SPR solution affinity), FGF-1
Settings: SPR, HBS-EP buffer, 25° C.; read-out: Kd FGF-1
Each record here notes measured pKd.
Bear in mind: pKd is minus log10 of a mol/L concentration; give just that figure.

Below are worked cases with known answers.
• CC(C)CCCC(C)C1CCC2C3CCC4CC(OCc5cn(CCCOC6OC(COS(=O)(=O)O)C(OS(=O)(=O)O)C(OS(=O)(=O)O)C6OC6OC(COS(=O)(=O)O)C(OS(=O)(=O)O)C(OC7OC(COS(=O)(=O)O)C(OS(=O)(=O)O)C(OS(=O)(=O)O)C7OS(=O)(=O)O)C6OS(=O)(=O)O)nn5)CCC4(C)C3CCC12C (stereo not drawn) = 7.65
• CC(C)CCC[C@@H](C)[C@H]1CC[C@H]2[C@@H]3CCC4CC(O[C@H]5O[C@H](COS(=O)(=O)[O-])[C@@H](OS(=O)(=O)[O-])[C@H](O[C@H]6O[C@H](COS(=O)(=O)[O-])[C@@H](OS(=O)(=O)[O-])[C@H](O[C@H]7O[C@H](COS(=O)(=O)[O-])[C@@H](OS(=O)(=O)[O-])[C@H](OS(=O)(=O)[O-])[C@@H]7OS(=O)(=O)[O-])[C@@H]6OS(=O)(=O)[O-])[C@@H]5OS(=O)(=O)[O-])CC[C@]4(C)[C@H]3CC[C@]12C.[Na+].[Na+].[Na+].[Na+].[Na+].[Na+].[Na+].[Na+].[Na+].[Na+] (stereo partly drawn) = 7.80
• CC(C)CCCC(C)C1CCC2C3CCC4CC(OCc5cn(C6OC(COS(=O)(=O)O)C(OC7OC(COS(=O)(=O)O)C(OC8OC(COS(=O)(=O)O)C(OS(=O)(=O)O)C(OS(=O)(=O)O)C8OS(=O)(=O)O)C(OS(=O)(=O)O)C7OS(=O)(=O)O)C(OS(=O)(=O)O)C6OS(=O)(=O)O)nn5)CCC4(C)C3CCC12C (stereo not drawn) = 7.30
• CC(C)CCC[C@@H](C)[C@H]1CC[C@H]2[C@@H]3CC[C@H]4C[C@@H](O[C@H]5O[C@H](COS(=O)(=O)O)[C@@H](OS(=O)(=O)O)[C@H](OS(=O)(=O)O)[C@@H]5O[C@H]5O[C@H](COS(=O)(=O)O)[C@@H](OS(=O)(=O)O)[C@H](OS(=O)(=O)O)[C@@H]5OS(=O)(=O)O)CC[C@]4(C)[C@H]3CC[C@]12C = 6.57
• CC(C)CCCC(C)C1CCC2C3CCC4CC(OC5OC(COS(=O)(=O)O)C(OC6OC(COS(=O)(=O)O)C(OC7OC(COS(=O)(=O)O)C(OS(=O)(=O)O)C(OS(=O)(=O)O)C7OS(=O)(=O)O)C(OS(=O)(=O)O)C6OS(=O)(=O)O)C(OS(=O)(=O)O)C5OS(=O)(=O)O)CCC4(C)C3CCC12C (stereo not drawn) = 7.61

# ---- query compound ----
### Prompt Endpoint output: pKd of CCCCCCCCCCCCOC1OC(COS(=O)(=O)O)C(OS(=O)(=O)O)C(OS(=O)(=O)O)C1OC1OC(COS(=O)(=O)O)C(OS(=O)(=O)O)C(OC2OC(COS(=O)(=O)O)C(OS(=O)(=O)O)C(OC3OC(COS(=O)(=O)O)C(OS(=O)(=O)O)C(OC4OC(COS(=O)(=O)O)C(OS(=O)(=O)O)C(OS(=O)(=O)O)C4OS(=O)(=O)O)C3OS(=O)(=O)O)C2OS(=O)(=O)O)C1OS(=O)(=O)O (stereo not drawn) . Value?
### Response 8.22
